test: Time‐dependent metabolism of STS‐135 in genotyped HLMs CYP3A5*1/*1; type: in vitro ADME; settings: human, genotyped CYP3A5*1/*1 human liver microsomes, pH 7.4
Endpoint label: half-life (min)
Dear colleague, please return just the value in min, with no unit written.

Reported half-life for O=C(NC12CC3CC(CC(C3)C1)C2)c1cn(CCCCCF)c2ccccc12 [STS‐135] : what is it?
21.1
